Molecular target: GPR17 (long isoform) (Homo sapiens, UniProt Q13304)
Sequence (Q13304 whole entry, canonical isoform): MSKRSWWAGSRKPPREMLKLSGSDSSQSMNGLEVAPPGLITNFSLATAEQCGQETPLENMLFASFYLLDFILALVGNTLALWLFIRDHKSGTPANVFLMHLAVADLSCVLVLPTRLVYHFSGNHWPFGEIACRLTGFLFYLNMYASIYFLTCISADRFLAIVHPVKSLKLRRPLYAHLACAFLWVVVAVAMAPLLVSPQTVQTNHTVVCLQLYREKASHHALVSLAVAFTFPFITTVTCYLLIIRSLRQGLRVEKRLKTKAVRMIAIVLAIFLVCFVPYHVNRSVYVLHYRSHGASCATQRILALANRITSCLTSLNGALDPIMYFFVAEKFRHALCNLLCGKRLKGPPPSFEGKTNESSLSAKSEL
Assay: PathHunter GPR17 β-arrestin recruitment assay
Conditions: IC50 (antagonist mode), assay development; stimulated with 2 μM MDL (~EC80)

{"compound": "O=C(O)c1ccc(OCCCc2ccc(OCCCCOC3CCCCC3)cc2)c(C(=O)NC2CCCC(C(=O)O)C2)c1 (stereo not shown) [HAMI]", "outputUnit": "µM", "IC50": 8.2}

###

Listed here are compounds together with their documented IC50.
Biological target: hGPR17L (Homo sapiens, UniProt Q13304)
Sequence (Q13304 whole entry): as the sequence (Q13304 whole entry, canonical isoform) above
Assay: Calcium mobilization assay
Type: cell-based
Details: Calcium Assay IC50(μM) Avg ± SEM, Table 2; reported only when efficacy ≥75%

{"compound": "COc1cc(C(=O)NC2CCCc3c2[nH]c2c(Cl)cccc32)ccc1F (stereo not shown)", "outputUnit": "µM", "IC50": 12.6}
{"compound": "O=C(NC1CCCc2c1[nH]c1c(Cl)cccc21)c1ccc(F)c([N+](=O)[O-])c1 (stereo not shown)", "outputUnit": "µM", "IC50": 11.6}
{"compound": "CS(=O)(=O)c1ccc(C(=O)NC2CCCc3c2[nH]c2c(Cl)cccc32)cc1[N+](=O)[O-] (stereo not shown)", "outputUnit": "µM", "IC50": 4.42}
{"compound": "O=C(NC1CCCc2c1[nH]c1c(Cl)cccc21)c1ccc2c(c1)OCO2 (stereo not shown)", "outputUnit": "µM", "IC50": 11.4}
